The reported numbers originate from patent US7399869B2.

Property: Relative Hydrolysis rate by DPP-4; scope: individual compounds
- TARGET UNDER TEST: DPP-4 (Homo sapiens, UniProt P27487)
- Sequence (P27487 39-766): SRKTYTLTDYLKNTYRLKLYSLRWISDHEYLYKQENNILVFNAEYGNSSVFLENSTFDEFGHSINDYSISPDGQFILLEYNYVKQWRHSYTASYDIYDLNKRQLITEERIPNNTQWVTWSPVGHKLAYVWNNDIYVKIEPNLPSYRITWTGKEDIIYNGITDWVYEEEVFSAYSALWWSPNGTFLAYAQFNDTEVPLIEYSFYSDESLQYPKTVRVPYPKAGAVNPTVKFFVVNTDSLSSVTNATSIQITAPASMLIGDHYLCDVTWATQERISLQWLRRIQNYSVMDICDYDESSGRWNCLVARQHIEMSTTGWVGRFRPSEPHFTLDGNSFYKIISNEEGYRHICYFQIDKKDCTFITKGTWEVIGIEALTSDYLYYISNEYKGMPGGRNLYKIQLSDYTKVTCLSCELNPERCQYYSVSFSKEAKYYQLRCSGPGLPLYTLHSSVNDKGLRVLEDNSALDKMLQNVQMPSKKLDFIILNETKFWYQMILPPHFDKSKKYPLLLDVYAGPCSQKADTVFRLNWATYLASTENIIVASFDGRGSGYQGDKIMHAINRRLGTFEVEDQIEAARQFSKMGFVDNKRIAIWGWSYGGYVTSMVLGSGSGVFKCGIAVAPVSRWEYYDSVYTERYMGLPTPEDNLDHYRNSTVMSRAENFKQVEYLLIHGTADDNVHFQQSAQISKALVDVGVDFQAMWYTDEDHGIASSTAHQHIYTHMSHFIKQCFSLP
- PROTOCOL DETAILS: Relative cleavage rates of coumarin (AMCC) dipeptide substrates by DPP-4
- Type: biochemical
- Set-up: DPP-4 (amino acids 39-766); FLAG (N); made in house; host or cells: 293 cells (secreted, purified from serum-free conditioned media)
- PARTICULARS: P2-Pro-AMCC substrates; hydrolysis rates normalized to Gly-Pro-AMCC
I only need the number, thanks.

Q. For CC(=O)NC(C)C(=O)N1CCCC1C(=O)Nc1ccc2c(C)c(CC(N)=O)c(=O)oc2c1 [Ac-(D-Ala)] , what is its reported Relative Hydrolysis rate by DPP-4?
A. 1

Q. For Cc1c(CC(N)=O)c(=O)oc2cc(NC(=O)[C@@H]3CCCN3C(=O)[C@@H](C)N)ccc12 [D-Ala] then?
A. 2

Q. For CC(=O)NC(CO)C(=O)N1CCCC1C(=O)Nc1ccc2c(C)c(CC(N)=O)c(=O)oc2c1 [Ac-(D-Ser)] then?
A. 0

Q. For NCCC(=O)O [β-Ala] then?
A. 1

====

Property: Kcat; scope: individual compounds
- TARGET UNDER TEST: FAP (Homo sapiens)
- Sequence (Q12884 38-760): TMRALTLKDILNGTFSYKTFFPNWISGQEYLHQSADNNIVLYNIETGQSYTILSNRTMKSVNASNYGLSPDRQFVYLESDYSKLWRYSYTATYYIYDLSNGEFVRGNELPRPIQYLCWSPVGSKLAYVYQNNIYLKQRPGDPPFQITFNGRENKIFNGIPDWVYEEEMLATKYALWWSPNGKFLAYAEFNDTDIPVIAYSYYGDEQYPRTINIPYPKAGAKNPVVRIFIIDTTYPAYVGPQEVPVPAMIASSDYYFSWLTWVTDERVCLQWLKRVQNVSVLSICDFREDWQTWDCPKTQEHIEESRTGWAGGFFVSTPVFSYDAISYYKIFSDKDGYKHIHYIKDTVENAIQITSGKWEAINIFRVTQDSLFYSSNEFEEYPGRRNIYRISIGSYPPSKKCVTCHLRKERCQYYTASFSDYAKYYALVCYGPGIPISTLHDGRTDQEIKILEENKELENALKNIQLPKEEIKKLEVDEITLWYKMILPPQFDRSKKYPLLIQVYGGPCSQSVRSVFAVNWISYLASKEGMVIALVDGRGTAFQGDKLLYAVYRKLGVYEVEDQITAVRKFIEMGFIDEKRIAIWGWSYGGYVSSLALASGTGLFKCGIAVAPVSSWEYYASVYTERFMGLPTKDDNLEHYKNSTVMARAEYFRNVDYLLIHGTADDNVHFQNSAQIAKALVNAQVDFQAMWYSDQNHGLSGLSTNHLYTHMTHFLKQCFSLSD
- PROTOCOL DETAILS: Hydrolysis of C-terminal coumarin dipeptide substrates by FAP (kinetic constants)
- Type: biochemical
- Design: FAP (amino acids 38-760); FLAG (N); made in house; host or cells: 293 cells (secreted, purified from serum-free conditioned media)
- PARTICULARS: FAP; substrates with unblocked N-termini; 23° C., pH 7.4; NC = no cleavage up to 1 mM substrate
Residues, ends and D or L forms follow the SMILES beside them. *: point of attachment. AFC = O=c1cc(C(F)(F)F)c2ccc(N*)cc2o1; AMC = Cc1cc(=O)oc2cc(N*)ccc12
# include the unit after the value

Before answering, review these 3 worked examples.
COMPOUND	Kcat
C[C@H](N)C(=O)N1CCC[C@H]1C(=O)Nc1ccc2c(C(F)(F)F)cc(=O)oc2c1 [Ala-Pro-AFC 9] (H-Ala-Pro-{AFC})	14.2 ± 0.9 s⁻¹
CC[C@H](C)[C@H](N)C(=O)N1CCC[C@H]1C(=O)Nc1ccc2c(C(F)(F)F)cc(=O)oc2c1 [Ile-Pro-AFC 13, Ile-Pro-AFC] (H-Ile-Pro-{AFC})	6.9 ± 0.3 s⁻¹
Cc1cc(=O)oc2cc(NC(=O)C(C)NC(=O)C(N)CCCCN)ccc12 (stereo not drawn) [Lys-Ala-AMC 12, Lys-Ala-AMC] (H-Lys-Ala-{AMC}; configuration not given here)	0.01 ± 0.001 s⁻¹

Read the next record carefully.
Q. For NC(Cc1ccccc1)C(=O)N1CCCC1C(=O)Nc1ccc2c(C(F)(F)F)cc(=O)oc2c1 (stereo not drawn) [Phe-Pro-AFC 10, Phe-Pro-AFC] (H-Phe-Pro-{AFC}; configuration not given here) , what is its reported Kcat?
A. 1.1 ± 0.1 s⁻¹
